We begin with a simple list: items and their reported protein stability index.
B1: ZNF207 (parent)
chain: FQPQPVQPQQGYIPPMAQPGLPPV

# Variants of: B1
# procedure details: protein stability index of a GFP-peptide fusion (GPS, HEK-293T) (PSI 1-6); higher = more stable;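 further: lentivirally expressed fusions sorted by FACS into six bins by GFP to DsRed ratio, PSI derived from sequencing read proportions per bin multiplied by bin number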
# run conditions: c terminus: a fixed tail appended
Respond using a number only.

Sample records with protein stability index:
P14N    2.5
G11R    3.21
V24L    2.44

q: Item under review: Q4I . Reported protein stability index?
a: 2.31

q: Item under review: P5A . Reported protein stability index?
a: 3.22

q: Item under review: P14F . Reported protein stability index?
a: 2.93

q: Item under review: G20C . Reported protein stability index?
a: 2.93

q: Item under review: Q2K . Reported protein stability index?
a: 3.54

q: Item under review: P19C . Reported protein stability index?
a: 3.1

q: Item under review: Y12K . Reported protein stability index?
a: 3.7

q: Item under review: Q18W . Reported protein stability index?
a: 2.03
